Entry source: PubChem BioAssay (NCI)

tested on: MDA-MB-435
Classes used: 1 (yes) for active, 0 (no) for inactive

• Cc1cc(C(=O)/C=C/c2ccc[nH]2)ccc1-n1ccc(C(F)(F)F)n1 = 0 (no)
• Cc1ccc(C(=O)c2sc3nc4c(cc3c2N)CCCC4)c(C)c1 = 1 (yes)
• CCCCCCCCCC[C@@H](O)[C@@H]1CC[C@@H]([C@@H]2CC[C@@H]([C@@H](O)CCCCCCCCCC[C@H](O)CC3=CC(C)OC3=O)O2)O1 (stereo partly drawn) = 0 (no)

* * *

test system: OVCAR-4 ovarian; assay: NCI tumour cell line growth inhibition, 48 h
Attribute: TGI
measure: TGI

- Cc1ccc(S(=O)(=O)N/N=C(\c2nc3ccc([N+](=O)[O-])cc3[nH]c2=O)C(O)c2ccc([N+](=O)[O-])cc2)cc1 (stereo not drawn): > 100 µM
- CC(=O)Nc1ccc2c3c(cc(O)c2c1)N(C(=O)CCCCC(=O)N1CC(CCl)c2c1cc(O)c1cc(NC(C)=O)ccc21)CC3CCl (stereo not drawn): > 27.7 µM
- c1ccc2c(c1)OCCc1cn[nH]c1-2: > 100 µM

* * *

system: UO-31 renal; assay: NCI tumour cell line growth inhibition, 48 h
Attribute: log10 of TGI
measure: log10 of TGI (log10 of the value in µM)

• CC1=CC(C)(c2c[nH]c3ccccc23)CC(C)(C)c2c1[nH]c1ccccc21 (stereo not given) = 1.44
• CN(CCNC(=O)c1c[nH]c2c1ccc1ccccc12)CCNC(=O)c1c[nH]c2c1ccc1ccccc12 = 0.43
• O=[N+]([O-])c1ccc(-n2nc3ccc4c(no[n+]4[O-])c3[n+]2[O-])c([N+](=O)[O-])c1 = 1.12
• C=CC(COC(=O)C(C)(C)OC(C)=O)c1ccc(OC(=O)C(C)C)c(OC)c1 (stereo not given) = 1.32
• CN(C)CCC(/C=C/c1ccccc1)=N\Nc1ccc(Cl)c(Cl)c1 = 0.53
• CO/N=C(/C)c1cccc(Nc2nc3ccc(Cl)cc3c3[nH]c4ccccc4c23)c1 = 1.34
• CCOC(=O)/C(=C\NC(C)(C)C)c1nc2ccccc2[nH]1 = 1.62
• COc1cccc(-c2nn(-c3ccccc3)cc2-c2ccnc(NCCCNC(=O)c3cccc(C(F)(F)F)c3)c2)c1 = 1.22
• COc1ccc(/C=C2\C[C@H]3[C@@H]4CC=C5C[C@@H](OC(C)=O)CC[C@]5(C)[C@H]4CC[C@]3(C)\C2=N\O)cc1OC = 1.96
• CN(C)CCCNc1ccc2nnn3c4ccc(OC(=O)c5ccccc5)cc4c(=O)c1c23 = 1.32
• CCOC(=O)C(C)Sc1nnc(COc2ccc(Cl)cc2)n1-c1ccccc1 (stereo not given) = 1.45
• CCCOc1cc2ccccc2cc1C(=O)Nc1nc(NC)c2c(ccc3nccc32)[nH]1 = 0.41
• O/N=C(/C(Cl)=C(Cl)Cl)C(Cl)Cl = 1.69
• COCCOCCOCc1n(Cc2ccc3ccccc3c2)c2ccccc2[n+]1Cc1ccc2ccccc2c1 = 0.66

* * *

Attribute: TGI
tested on: LOX IMVI melanoma; experiment: NCI tumour cell line growth inhibition, 48 h
measure: TGI

• O=[N+]([O-])c1cccc(-c2nc(-c3ccc(Cl)cc3Cl)cn2-c2ccccc2)c1 = > 30.7 µM
• O=C(/C=C/c1ccc(OCc2ccccc2)cc1)NCc1ccc(C(=O)NCCc2c[nH]c3ccccc23)cc1 = > 100 µM
• COc1ccc2c3c([nH]c(=O)c2c1C(=O)O)-c1ccccc1CC3 = > 100 µM
• Cc1c(O)c(OC2OC(CO)C(O)C(O)C2O)cc2c1C=C[C@@H]1[C@@]2(C)C(=O)C[C@]2(C)[C@@H]([C@@](C)(O)C(O)/C=C/C(C)(C)O)[C@H](O)C[C@@]12C (some centres undefined) = > 100 µM

* * *

Attribute: TGI
test system: PC-3 prostate; test: NCI tumour cell line growth inhibition, 48 h
measure: TGI

• CCN(CC)c1c(-c2ccccc2)n[nH]c1C(=O)OC = > 100 µM
• CN(C)C1(N(C)C)Oc2c(c(=O)n(C)c(=O)n2C)C(c2ccc(C(F)(F)F)cc2)C1(F)F (centres undefined) = > 100 µM
• O=C(O)CCO/N=C1/C(c2c(O)[nH]c3ccccc23)=Nc2ccccc21 = > 100 µM
• CCc1c2cc(OC)c(OC)cc2cc2c3cc(OC)c(OC)cc3cc[n+]12 (tested in a mixture with another compound) = > 83.1 µM

* * *

tested on: SF-268 CNS; assay: NCI tumour cell line growth inhibition, 48 h
Attribute: TGI
measure: TGI (µM)

* CC(=O)Oc1ccc2c(c1)[C@@]1(C)CCCC(C)(C)[C@@H]1CC2 | 47.9
* N#CC1=C(N)NC(=S)NC1c1ccc(-c2ccc(-c3nc4ccccc4o3)cc2)s1 (stereo not drawn) | 26.5
* CC(=O)NC1C(OC(C)C(=O)NC(C(=O)NC(CCC(=O)NCCCNC2c3ccccc3Nc3cccc([N+](=O)[O-])c32)C(N)=O)C(C)C)C(O)C(CO)OC1(C)OCc1ccccc1 (stereo not drawn) | 3.3
* c1csc(-c2nccc3c2[nH]c2ccccc23)c1 | 56.7

* * *

Attribute: TGI
tested on: UACC-257 melanoma; test: NCI tumour cell line growth inhibition, 48 h
measure: TGI

• Cc1cccc(C)c1NC(=O)CCc1nnc2s/c(=C\c3ccc(N(C)C)cc3)c(=O)n12 = > 100 µM
• Nc1c(C(=O)Nc2ccccn2)sc2nc3c(cc12)C(O)CCC3 (stereo not drawn) = > 50 µM
• Nc1nonc1-c1nc2ccccc2n1Cc1ccc(F)cc1 = > 100 µM

* * *

tested on: PC-3 prostate; assay: NCI tumour cell line growth inhibition, 48 h
measure: TGI

* CC(C)(C)OC(=O)NCCCCn1c2c(c3ccccc3c1=O)C(=O)c1ccccc1-2 | > 100 µM
* O=c1[nH]nc(-c2ccccc2)n1/N=C/c1ccco1 | > 100 µM
* N#CC1=C(N)NC(=S)NC1c1ccc(-c2ccc(-c3nc4ccccc4o3)cc2)s1 (stereo not drawn) | > 50 µM

* * *

test system: SK-MEL-5 melanoma; experiment: NCI tumour cell line growth inhibition, 48 h
measure: TGI

• O=C(c1cccc2ccccc12)C1S(=O)(=O)OCCOS1(=O)=O = > 100 µM
• COc1ccc2c(c1)CC1COc3cc(OC)ccc3C1O2 (configuration not stated) = > 100 µM
• COC(=O)[C@H](Cc1ccccc1)NC(=O)N(CCC#N)CCCCN(CCC#N)C(=O)N[C@@H](Cc1ccccc1)C(=O)OC = > 100 µM
• C/C(=N\NC(=O)C[N+](C)(C)C)c1sc(-c2cccnc2)nc1C = > 100 µM
• CCOC(=O)C1C=C2O[C@@H]3OC4(CCCCC4)O[C@@H]3C2C2C(=O)CCC(=O)[C@@]12C(=O)OC (some centres not stated) = > 100 µM
• COc1cc2c(oc(=O)c3c4occc4cc(OC)c23)c2cccc(OCc3ccccc3)c12 = > 100 µM
• Cc1cc(C(=O)Nc2n[nH]c3ccccc23)n[nH]1 = > 100 µM

* * *

test system: T-47D breast; assay: NCI tumour cell line growth inhibition, 48 h
measure: TGI

- NC(=O)CN1CC(C2=C(O)CN(CC(N)=O)C2=O)=CC1=O: > 100 µM
- CCOC(=O)C(Cc1c[nH]c2cc(N(CCO)CCO)ccc12)(NC(C)=O)C(=O)OCC: > 1000 µM
- CN(C)C1(N(C)C)Oc2c(c(=O)n(C)c(=O)n2C)C(c2ccc(C(F)(F)F)cc2)C1(F)F (stereo not drawn): > 100 µM

* * *

system: RXF 393 renal; assay: NCI tumour cell line growth inhibition, 48 h
Attribute: TGI
measure: TGI

- OC(c1ccc(Cl)cc1)(c1ccc(Cl)cc1)c1cncnc1: 28.4 µM
- O=c1[nH]c2cc([N+](=O)[O-])ccc2nc1/C(=N/Nc1ccccc1)C(O)c1ccco1 (stereo not given): > 100 µM
- Cc1c(O)c(OC2OC(CO)C(O)C(O)C2O)cc2c1C=C[C@@H]1[C@@]2(C)C(=O)C[C@]2(C)[C@@H]([C@@](C)(O)C(O)/C=C/C(C)(C)O)[C@H](O)C[C@@]12C (stereo not given in full): > 100 µM
- CN(C)CCC(/C=C/c1ccccc1)=N\Nc1ccc(Cl)c(Cl)c1: 9.05 µM
- CCOC(=O)c1nc2ccccc2nc1NCc1ccc(OC)c(OC)c1: > 100 µM
- C[C@]12Cc3cnc(-c4ccccc4)nc3C[C@@H]1CC[C@@H]1[C@@H]2CC[C@@]2(C)[C@H]1CC[C@]2(C)O: 12.3 µM
- O=C1c2c(ccc3c2CCC3)CC1Cc1ccc2c(c1)CCC2 (stereo not given): 69.1 µM
- N#CCCN(CCC#N)c1ccc(C(N=Nc2ccc(Cl)cc2)=Nc2ccccc2)cc1: 30.8 µM
- O=C(c1ccco1)N(C(=S)N1CCN(c2ccccc2)CC1)C1CCCCC1: > 100 µM
- O=C(O)c1nc2ccc(Cl)cc2[nH]c1=O: > 100 µM
- CCCOc1cc2ccccc2cc1C(=O)Nc1nc(NC)c2c(ccc3nccc32)[nH]1: 1.68 µM
- Nc1nonc1-c1nc2ccccc2n1Cc1ccc(F)cc1: > 100 µM
- CC1=NN(c2nc(N)nc(CSc3cc(Cl)c(C)cc3S(N)(=O)=O)n2)C(C)(C)C1: > 10 µM
- COc1cccc2c1C1(O)C2CCCCCCCCCC12OCCCO2 (stereo not given): > 100 µM
- C=C1c2ccccc2C(=O)c2c1c1c(C(=O)OC)c(OC(=O)OCc3ccc([N+](=O)[O-])cc3)ccc1n2Cc1ccccc1: > 100 µM
- CC(=O)OC1OC(c2ccoc2)C[C@@]12C1CCC3O[C@]3(C)[C@]1(C)[C@H](OC(C)=O)[C@H](OC(C)=O)[C@H]2C (stereo not given in full): > 37.5 µM
- CN(C)C1(N(C)C)Oc2c(c(=O)n(C)c(=O)n2C)C(c2ccc(C(F)(F)F)cc2)C1(F)F (stereo not given): > 100 µM
- CCC(=O)NI1OC(=O)c2ccccc21: > 100 µM
- CNCC/C=C1\c2cc3c(cc2-c2c1c1cc(OC)c(OC)cc1c(=O)n2C)OCO3: 14.9 µM
- O=C(O)C1CC=CCC1C(=O)Nc1cccc(O)c1 (stereo not given): > 100 µM
- C/C(=N\NC(=O)C[N+](C)(C)C)c1sc(-c2cccnc2)nc1C: > 100 µM
- COc1ccc(C(=O)NC2=C(Cl)C(=O)c3ccccc3C2=O)cc1: 8.25 µM
- S=c1o[nH]c(-c2ccccc2)c1C=Nc1ccccc1: > 100 µM
- COc1ccc(C(=O)O[C@H]2CC[C@@]3(C)[C@@H]4CC[C@H]5[C@]6(O)C[C@H](O)[C@@]7(O)[C@@H](CN8C[C@@H](C)CC[C@H]8[C@@]7(C)O)[C@]6(O)C[C@@]53OC24O)cc1OC: > 100 µM
- O=C(Nn1c(-c2cccs2)nc2ccc(I)cc2c1=O)c1ccccc1: > 100 µM
- COc1ccc(/C=C2\C[C@H]3[C@@H]4CC=C5C[C@@H](OC(C)=O)CC[C@]5(C)[C@H]4CC[C@]3(C)\C2=N\O)cc1OC: > 100 µM
- c1csc(-c2nccc3c2[nH]c2ccccc23)c1: 36.1 µM
- COc1ccc(C(C)c2cc(OC)c(OC)c(OC)c2)cc1 (stereo not given): > 50 µM
- Nc1c(C(=O)Nc2ccccn2)sc2nc3c(cc12)C(O)CCC3 (stereo not given): > 50 µM
- CCOC(=O)C(C)Sc1nnc(COc2ccc(Cl)cc2)n1-c1ccccc1 (stereo not given): 41.7 µM
